Tested Target: cp1286
Experiment Notes: BLI
Readout: pKd
Schema: pKd number; meaning minus log10 of the concentration expressed in molar units.

Briefly, pKd measured for cp203 (Fc fusion, biotinylated for BLI capture (site not stated)) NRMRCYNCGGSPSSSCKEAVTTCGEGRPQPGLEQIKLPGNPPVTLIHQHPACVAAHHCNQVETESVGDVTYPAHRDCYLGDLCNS : 8.95
